Test: NCI Yeast Anticancer Drug Screen. Data for the sgs1 mgt1 strain (AID 161);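 also: 0% = growth of cultures given vehicle only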
Settings: S. cerevisiae sgs1 mgt1 strain, at 50.0 µM, hits give high values
This is part of a sample that, as a whole, favours compounds with a hit. Of some 79,000 tested, about 15% had one in any assay.
readout: growth inhibition (%)
Field: numeric (%). Do not append units.

The examples below pair each entry with its known result.
>>> data_value("COc1ccccc1/C=N/NC(=O)CCCCCCCCC(=O)N/N=C/c1ccccc1OC")
-4.4
>>> data_value("CC1CC(=O)Nc2nc(N)ncc21 (centres undefined)")
15.7
>>> data_value("Cc1cncc(C)c1P(=O)(O)O")
-9.05
>>> data_value("O=C(c1ccccc1Cl)N1CCN(c2ccccc2)CC1")
0
>>> data_value("[NH-]c1ncnc2c1N=C[N+]2=CC=CCO")
-19.7
>>> data_value("CC1CCP(=O)(c2ccccc2)CC1 (centres undefined)")
-7.15
>>> data_value("CC1CNC(=S)SSC(=S)N1 (centres undefined)")
20.9
>>> data_value("O=C(Nc1cccc2ccccc12)OC1CCCC1")
-14.4

stdin: Returns the measured growth inhibition for the input compound. Input: Cc1ccc(C2SCC(=O)N2c2ccc(-c3ccc(-n4c(-c5ccccc5)nc5ccccc5c4=O)cc3)cc2)cc1 (centres undefined)
stdout: 33

stdin: Returns the measured growth inhibition for the input compound. Input: C[C@@]12CCC(=O)C=C1CC[C@H]1C2CC[C@]2(C)C1CC[C@H]2C(=O)COC(=O)CCC(=O)O (some centres undefined)
stdout: 21.1

stdin: Returns the measured growth inhibition for the input compound. Input: C/C(=N\N)c1cnc(N)nc1C
stdout: 7.65

stdin: Returns the measured growth inhibition for the input compound. Input: CCCCCCCC/C=C/CCCCCCCCCCCC(=O)O
stdout: -1.45

stdin: Returns the measured growth inhibition for the input compound. Input: COc1ccc(NC(=O)C2C(=O)N(c3ccc(OC)cc3)C(=O)/C2=N\N)cc1 (centres undefined)
stdout: -2.9

stdin: Returns the measured growth inhibition for the input compound. Input: C[N+]1(CCC(/C=C/c2ccc([N+](=O)[O-])cc2)=N\O)CCOCC1
stdout: 14.8

* * *

Experiment: NCI Yeast Anticancer Drug Screen. Data for the cln2 rad14 strain (AID 165);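 also: 0% = growth equal to vehicle treated cultures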
Settings: S. cerevisiae cln2 rad14 strain, at 50.0 µM, hits give high values
About 79,000 compounds went through this panel and 15% of them were active in at least one assay; those are over-represented in the sample as a whole.
readout: growth inhibition (%)
Field: numeric (%). Do not append units.

>>> data_value("NC(=O)c1ccccn1")
18.3
>>> data_value("C[C@]12CC[C@@H]3c4ccc(OS(C)(=O)=O)cc4CC[C@H]3[C@@H]1CC[C@@H]2OS(C)(=O)=O")
22.1
>>> data_value("CCN(CC)C(=O)CCn1ccc(=O)[nH]c1=O")
9.55
>>> data_value("NCCSCc1ccccc1Cl")
-33.5
>>> data_value("CSc1nc(C)cc(=O)n1C1OC(COC(C)=O)C(OC(C)=O)C(OC(C)=O)C1OC(C)=O (centres undefined)")
16.6

stdin: Returns the measured growth inhibition for the input molecule. Input: C[N+](C)(N)CCC[N+](C)(C)N
stdout: -29.4

stdin: Returns the measured growth inhibition for the input molecule. Input: COCCCNC(=O)C1=CCCN(C)C1
stdout: -2.45

stdin: Returns the measured growth inhibition for the input molecule. Input: COC1(OC)C(c2ccc(Cl)cc2)C(C#N)(C#N)C1(OC)OC (centres undefined)
stdout: -48.4

stdin: Returns the measured growth inhibition for the input molecule. Input: O=C1CC[C@H](NC(=O)Cc2ccccc2)C(=O)N1
stdout: 6.35
